tested on: Uterine Eosinophil Peroxidase (EPO); settings: female, Sprague Dawley, rat, in vivo, po, 10 mg/kg, 4 days
Decision: Uterine EPO (V. max) compared against 4; not below it gives class 1, below it gives class 0.

{"smilesRecord": "O=C(Oc1ccc(-c2ccc3cc(OC(=O)c4ccccc4)ccc3c2Cc2ccc(OCCN3CCCCC3)cc2)cc1)c1ccccc1", "testSystem": "Uterine Eosinophil Peroxidase (EPO)", "labelValue": "class 1"}
{"smilesRecord": "CCN(CC)CCOc1ccc(Cc2c(-c3ccc(OC)cc3)ccc3cc(OC)ccc23)cc1.Cl", "testSystem": "Uterine Eosinophil Peroxidase (EPO)", "labelValue": "class 1"}
{"smilesRecord": "COc1ccc(-c2ccc3ccccc3c2Cc2ccc(OCCN3CCCCC3)cc2)cc1.Cl", "testSystem": "Uterine Eosinophil Peroxidase (EPO)", "labelValue": "class 1"}
{"smilesRecord": "CC(C)(C)C(=O)Oc1ccc(-c2ccc3cc(OC(=O)C(C)(C)C)ccc3c2Cc2ccc(OCCN3CCCCC3)cc2)cc1", "testSystem": "Uterine Eosinophil Peroxidase (EPO)", "labelValue": "class 0"}
{"smilesRecord": "Cl.Oc1ccc(-c2ccc3cc(O)ccc3c2Cc2ccc(OCCN3CCCCC3)cc2)cc1", "testSystem": "Uterine Eosinophil Peroxidase (EPO)", "labelValue": "class 1"}
{"smilesRecord": "CCCCS(=O)(=O)Oc1ccc(-c2ccc3cc(OS(=O)(=O)CCCC)ccc3c2Cc2ccc(OCCN3CCCCC3)cc2)cc1", "testSystem": "Uterine Eosinophil Peroxidase (EPO)", "labelValue": "class 0"}
{"smilesRecord": "Oc1ccc(-c2ccc3cc(O)ccc3c2Cc2ccc(OCCN3CCOCC3)cc2)cc1", "testSystem": "Uterine Eosinophil Peroxidase (EPO)", "labelValue": "class 1"}
{"smilesRecord": "CC1(C)CCN(CCOc2ccc(Cc3c(-c4ccc(O)cc4)ccc4cc(O)ccc34)cc2)C1", "testSystem": "Uterine Eosinophil Peroxidase (EPO)", "labelValue": "class 1"}
{"smilesRecord": "Oc1ccc2c(Cc3ccc(OCCN4CCCC4)cc3)c(-c3ccccc3)ccc2c1", "testSystem": "Uterine Eosinophil Peroxidase (EPO)", "labelValue": "class 1"}
{"smilesRecord": "Oc1ccc(-c2ccc3cc(O)ccc3c2Cc2ccc(OCCN3CCCC3)cc2)cc1", "testSystem": "Uterine Eosinophil Peroxidase (EPO)", "labelValue": "class 1"}
{"smilesRecord": "COc1ccc(-c2ccc3cc(OC)ccc3c2Cc2ccc(OCCN3CCCCC3)cc2)cc1.Cl", "testSystem": "Uterine Eosinophil Peroxidase (EPO)", "labelValue": "class 0"}

---

test system: ovariectomized (OVX) female Sprague Dawley rats; settings: rat, in vivo, po, 0.01 mg/kg, 4 days
readoutKind: Uterine Weight (% increase vs. OVX) (%)

{"smilesRecord": "O=C(Oc1ccc(-c2ccc3cc(OC(=O)c4ccccc4)ccc3c2Cc2ccc(OCCN3CCCCC3)cc2)cc1)c1ccccc1", "readoutKind": "Uterine Weight (% increase vs. OVX)", "endpointValue": 2.0}
{"smilesRecord": "COc1ccc(-c2ccc3cc(OC)ccc3c2Cc2ccc(OCCN3CCCCC3)cc2)cc1.Cl", "readoutKind": "Uterine Weight (% increase vs. OVX)", "endpointValue": "−11.2"}
{"smilesRecord": "Cl.Oc1ccc(-c2ccc3cc(O)ccc3c2Cc2ccc(OCCN3CCCCC3)cc2)cc1", "readoutKind": "Uterine Weight (% increase vs. OVX)", "endpointValue": 2.4}
{"smilesRecord": "COc1ccc(-c2ccc3ccccc3c2Cc2ccc(OCCN3CCCCC3)cc2)cc1.Cl", "readoutKind": "Uterine Weight (% increase vs. OVX)", "endpointValue": 29.3}
